B1: LINE1-full (parent)
chain: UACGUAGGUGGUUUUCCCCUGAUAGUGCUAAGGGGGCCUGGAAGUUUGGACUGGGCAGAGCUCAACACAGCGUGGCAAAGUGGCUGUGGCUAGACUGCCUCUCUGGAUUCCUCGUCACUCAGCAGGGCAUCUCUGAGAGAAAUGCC

Variants of: B1
Experiment: self-cleavage, relative activity (ratio to wild type); higher = more cleavage; in vitro, sequencing; the parent is a self-cleaving ribozyme
endpointLabel: self-cleavage

>  <residueChange>
C19U U45C

>  <endpointLabel>
self-cleavage

>  <val>
0.86

$$$$
>  <residueChange>
U91C U119G

>  <endpointLabel>
self-cleavage

>  <val>
1.53

$$$$
>  <residueChange>
G54C A138G

>  <endpointLabel>
self-cleavage

>  <val>
1.35

$$$$
>  <residueChange>
U85C A138U

>  <endpointLabel>
self-cleavage

>  <val>
0.13

$$$$
